Recorded values, source BindingDB's records for PubMed 8093723.

# Test system: Gamma-aminobutyric acid receptor subunit alpha-1 (Rattus norvegicus)
# Sequence (P62813 whole entry): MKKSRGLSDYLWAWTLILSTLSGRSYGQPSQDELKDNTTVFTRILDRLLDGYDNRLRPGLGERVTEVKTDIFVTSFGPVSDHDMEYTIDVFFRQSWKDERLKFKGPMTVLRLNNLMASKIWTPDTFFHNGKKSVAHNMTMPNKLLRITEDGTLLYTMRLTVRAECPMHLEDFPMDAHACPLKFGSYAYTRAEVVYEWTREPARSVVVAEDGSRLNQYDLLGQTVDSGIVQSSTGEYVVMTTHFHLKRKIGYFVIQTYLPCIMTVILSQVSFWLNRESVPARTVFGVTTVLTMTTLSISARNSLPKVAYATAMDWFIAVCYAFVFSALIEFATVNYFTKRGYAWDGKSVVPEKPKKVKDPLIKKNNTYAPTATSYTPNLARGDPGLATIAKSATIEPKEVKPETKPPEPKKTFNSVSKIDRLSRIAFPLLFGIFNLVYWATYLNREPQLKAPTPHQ
Assay endpoint: Ki

The value of Ki measured for the compound CCN1CCN(c2cc(-c3ccc(F)cc3)c3c(n2)CCCCCC3)CC1 [AD-5423] turned out to be > 10 µM

---

Protein target, amino acids: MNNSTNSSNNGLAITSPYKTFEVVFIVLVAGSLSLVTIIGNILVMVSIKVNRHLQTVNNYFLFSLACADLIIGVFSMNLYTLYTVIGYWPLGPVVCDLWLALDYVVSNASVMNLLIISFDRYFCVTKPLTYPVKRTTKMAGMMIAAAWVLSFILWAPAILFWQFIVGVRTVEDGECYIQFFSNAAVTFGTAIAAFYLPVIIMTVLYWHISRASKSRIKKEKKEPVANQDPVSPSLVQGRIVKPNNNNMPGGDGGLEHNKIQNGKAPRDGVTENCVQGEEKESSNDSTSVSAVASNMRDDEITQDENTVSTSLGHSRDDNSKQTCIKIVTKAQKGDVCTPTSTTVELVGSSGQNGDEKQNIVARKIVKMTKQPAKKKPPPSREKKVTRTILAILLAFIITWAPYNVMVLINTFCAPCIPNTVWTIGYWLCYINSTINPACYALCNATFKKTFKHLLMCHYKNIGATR
Assay endpoint: pKi
// scale note: pKi = -log10(conc_M); give the bare number

Item: CCN1CCN(c2cc(-c3ccc(F)cc3)c3c(n2)CCCCCC3)CC1 | pKi: 5.64
